Value source: patent US20130210804A1

Property: EC50; scope: individual molecules
target: human mGluR5A (Homo sapiens, UniProt P41594); construct: expressed in transfected cells; host or cells: CHO (Chinese Hamster Ovary) cells, kept under Puromycin and Zeocin selection; assay: Fluorescent Ca2+ mobilization (FLIPR) assay, potentiation of a sub-threshold (EC20, 300 nM) glutamate response; type: cell-based; conditions: CHO cells expressing human mGluR5A; potentiation in the presence of 300 nM glutamate; about/generally; read-out: EC50 for potentiating/enhancing the mGluR5 receptor in the FLIPR assay
Sequence (P41594 21-1180 isoform P41594-2 limits assumed): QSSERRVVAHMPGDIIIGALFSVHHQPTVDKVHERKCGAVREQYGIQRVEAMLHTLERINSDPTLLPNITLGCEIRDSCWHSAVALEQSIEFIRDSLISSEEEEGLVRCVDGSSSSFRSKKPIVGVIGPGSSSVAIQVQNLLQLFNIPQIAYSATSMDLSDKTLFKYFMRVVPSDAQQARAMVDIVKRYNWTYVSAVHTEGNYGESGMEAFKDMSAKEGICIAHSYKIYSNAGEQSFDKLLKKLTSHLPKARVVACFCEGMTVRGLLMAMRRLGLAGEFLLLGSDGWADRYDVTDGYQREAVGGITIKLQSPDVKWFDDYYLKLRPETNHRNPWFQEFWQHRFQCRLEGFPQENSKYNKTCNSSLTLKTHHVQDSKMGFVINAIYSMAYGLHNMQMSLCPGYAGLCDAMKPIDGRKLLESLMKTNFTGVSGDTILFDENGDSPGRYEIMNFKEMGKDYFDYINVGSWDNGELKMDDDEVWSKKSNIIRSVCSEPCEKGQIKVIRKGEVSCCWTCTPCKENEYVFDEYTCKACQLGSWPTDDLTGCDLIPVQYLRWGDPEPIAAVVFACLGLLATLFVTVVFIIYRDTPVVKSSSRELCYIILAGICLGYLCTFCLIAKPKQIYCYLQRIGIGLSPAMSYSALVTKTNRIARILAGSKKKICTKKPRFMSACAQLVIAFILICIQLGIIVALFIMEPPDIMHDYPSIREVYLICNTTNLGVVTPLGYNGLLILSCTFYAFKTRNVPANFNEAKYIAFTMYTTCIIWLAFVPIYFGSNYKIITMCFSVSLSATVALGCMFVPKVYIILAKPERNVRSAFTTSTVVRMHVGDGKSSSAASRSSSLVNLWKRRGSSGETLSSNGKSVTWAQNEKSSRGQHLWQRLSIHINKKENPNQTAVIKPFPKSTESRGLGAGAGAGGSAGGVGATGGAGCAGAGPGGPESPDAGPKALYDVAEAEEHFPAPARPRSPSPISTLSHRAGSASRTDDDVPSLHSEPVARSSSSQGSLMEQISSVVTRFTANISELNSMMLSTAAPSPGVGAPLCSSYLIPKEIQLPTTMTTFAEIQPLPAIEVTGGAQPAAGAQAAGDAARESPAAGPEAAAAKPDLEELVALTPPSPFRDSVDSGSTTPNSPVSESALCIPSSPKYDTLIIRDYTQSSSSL

Prompt: Fill in the blank: the reported EC50 of "O=C1c2ccc(F)cc2CC[C@@H]2CC[C@H](c3nc(-c4cc(Cl)c[nH]4)no3)CN12" is ____.
Completion: < 1 µM

Prompt: Try this molecule next: "O=C1c2ccccc2OC[C@@H]2CC[C@H](c3nc(-c4cc(Cl)c[nH]4)no3)CN12"
Completion: < 1 µM

Prompt: Item: "Cc1c[nH]c(-c2noc([C@H]3CC[C@H]4CCc5ccccc5C(=O)N4C3)n2)c1"
Completion: < 1 µM

Prompt: Moving on to Cc1c[nH]c(-c2noc(C3CCC4C=Cc5ccccc5C(=O)N4C3)n2)c1 (racemic)
Completion: < 1 µM

Prompt: Follow-up item: O=C1c2cnc(F)cc2CC[C@@H]2CC[C@H](c3noc(-c4ccc(F)cn4)n3)CN12 (single isomer, unassigned)
Completion: < 1 µM
